Tested on: Bacillus subtilis
assay text: Antibacterial activity against Bacillus subtilis ATCC 6033 by serial dilution method
Format: functional
measurement type: MIC (µg/mL)

Consider the reported MIC for these compounds:
{"compound": "CC1CCN(S(=O)(=O)c2ccc(-n3cnc4c(=O)[nH]c(N)nc43)c(Cl)c2)CC1", "MIC (µg/mL)": 32}
{"compound": "CC1CCN(S(=O)(=O)c2ccc(-n3cnc4c(=O)[nH]c(N)nc43)c(F)c2)CC1", "MIC (µg/mL)": 64}
{"compound": "CCn1cc(C(=O)O)c(=O)c2cc(F)c(N3CCNCC3)cc21 [NORFLOXACIN]", "MIC (µg/mL)": 32}

P. Nc1nc2c(ncn2-c2ccc(S(=O)(=O)N3CCCCC3)cc2F)c(=O)[nH]1
Q. COc1cc(S(=O)(=O)N2CCCCC2)ccc1-n1cnc2c(=O)[nH]c(N)nc21
Compare MIC: is it lower for P or for Q ? Refer to your chosen item by its label in the answer.
Q
(Q: 16 µg/mL, P: 32 µg/mL)

====

System: Candida albicans
assay text: Antifungal activity against Candida albicans NCIM C27 by serial dilution method
Format: functional
measurement type: MIC (µg/mL)

{"smiles text": "Nc1nc2c(ncn2-c2ccc(S(=O)(=O)N3CCCCC3)cc2Cl)c(=O)[nH]1", "MIC [µg/mL]": 64}

P. CC1CCN(S(=O)(=O)c2ccc(-n3cnc4c(=O)[nH]c(N)nc43)c(F)c2)CC1
Q. COc1cc(S(=O)(=O)N2CCC(C)CC2)ccc1-n1cnc2c(=O)[nH]c(N)nc21
Compare MIC: is it lower for P or for Q ? Refer to your chosen item by its label in the answer.
Q
(Q: 32 µg/mL, P: 64 µg/mL)

A. CC1CCN(S(=O)(=O)c2ccc(-n3cnc4c(=O)[nH]c(N)nc43)c(Cl)c2)CC1
B. COc1cc(S(=O)(=O)N2CCCCC2)ccc1-n1cnc2c(=O)[nH]c(N)nc21
Compare A and B by numeric MIC and name the larger one. Refer to your chosen item by its label in the answer.
A
(A: 64 µg/mL, B: 32 µg/mL)

====

Tested on: Staphylococcus aureus
assay text: Antibacterial activity against Staphylococcus aureus ATCC 25923 by serial dilution method
Assay type: functional
measurement type: MIC (µg/mL)

Consider the reported MIC for these compounds:
{"compound": "CC1CCN(S(=O)(=O)c2ccc(-n3cnc4c(=O)[nH]c(N)nc43)c(F)c2)CC1", "MIC [µg/mL]": 32}
{"compound": "CCn1cc(C(=O)O)c(=O)c2cc(F)c(N3CCNCC3)cc21 [NORFLOXACIN]", "MIC [µg/mL]": 8}

I. Nc1nc2c(ncn2-c2ccc(S(=O)(=O)N3CCCCC3)cc2Cl)c(=O)[nH]1
II. COc1cc(S(=O)(=O)N2CCCCC2)ccc1-n1cnc2c(=O)[nH]c(N)nc21
III. Nc1nc2c(ncn2-c2ccc(S(=O)(=O)N3CCCCC3)cc2F)c(=O)[nH]1
Ordering criterion: MIC; begin with the maximum. // list labels; follow requested order
II, III, I
(II: 64 µg/mL, III: 32 µg/mL, I: 4 µg/mL)

====

System: Aspergillus niger
assay text: Antifungal activity against Aspergillus niger NCIM 590 by serial dilution method
Type: functional
measurement type: MIC (µg/mL)

{"smiles text": "CC1CCN(S(=O)(=O)c2ccc(-n3cnc4c(=O)[nH]c(N)nc43)c(F)c2)CC1", "measurement type": "MIC", "meas value": 32}
{"smiles text": "COc1cc(S(=O)(=O)N2CCC(C)CC2)ccc1-n1cnc2c(=O)[nH]c(N)nc21", "measurement type": "MIC", "meas value": 32}

A. CC1CCN(S(=O)(=O)c2ccc(-n3cnc4c(=O)[nH]c(N)nc43)c(Cl)c2)CC1
B. Nc1nc2c(ncn2-c2ccc(S(=O)(=O)N3CCCCC3)cc2Cl)c(=O)[nH]1
C. COc1cc(S(=O)(=O)N2CCCCC2)ccc1-n1cnc2c(=O)[nH]c(N)nc21
Provide the items ranked by increasing MIC. // list labels; follow requested order
C, A, B
